# test: label from the status in PepcDB records
quantity: protein production

INSERT INTO results (sequencerecord, measuredvalue) VALUES
  ('MDSSLANINQIDVPSKYLRLLRPVAWLCFLLPYAVGFGFGITPNASLQHAVLGLLSFAFWMAFSFTINALYDRDVDRLHDGRVKDLNLSMQPLVTGEISVREAWLYCIAFLALSLATAAAINEKFFLAMLGANIIGYVYSAPPRFKAWPVMDVICNALAAVLAFYAGLSIGGAEVPIAIYPAAFFLAATFYIPTAVSDYEFDKKAGLKNTPVFFGPERALKSLYPLSAITVILWAYVFLMAERIEIKVISPLIIAYTLIYTFIINSRWDGEKLNVSPNLILTPFGIISALFIAYGFAVISVLG', 'failed'),
  ('MKLIASNKKAYFDYEILETLEAGLALLGSEVKALRQTRVNLKDNFVKIIKGEAFLFGVHISYLDTIHAYYKPNERRERKLLLHKKQLLKWQIEASKERLSIVGLKLYFNQRNRAKIQIALVKGKRLHDKRQSLKEKALNKEILADLKHHFKG', 'failed');

---

# test: label from the status in PepcDB records
quantity: protein production

INSERT INTO measurements (sequencerecord, quantity, measuredvalue) VALUES
  ('MNMIDQLNITDFQVFTDENSDKSVSKIYKFSSKMILSDFHAQPHGFLNGGASLALAEITAGMASNAIGSSQYFALGQSISANHLNSKKCEGFVNACGLLLKNGKRNHVWEIKITDENETLISQITVVNALVPQKNSDKLEHHHHHH', 'protein production', 'failed'),
  ('MEKILDLLMSFVKEDEGKLDLASFPLRNTTAGAHLLLKTENVVASGIEVSRMFLEKMGLLSKFNVEDGEYLEGTGVIGEIEGNTYKLLVAERTLLNVLSVMFSVATTTRRFAEKLKHAKIAATRKILPGLGVLQKIAVVHGGGDPHRLDLSGCVMIKDNHLKMYGSAERAVQEVRKIIPFTTKIEVEVENLEDALRAVEAGADIVMLDNLSPEEVKDISRRIKDINPNVIVEVSGGITEENVSLYDFETVDVISSSRLTLQEVFVDLSLEIQR', 'protein production', 'not failed'),
  ('MPPPIHPSSSAAPGPVPNHLIWAIVSTVLGFCLCCPALISGIVAIVFSSKVNGLLNQGDIDGARRASNTAKTWCIVTSVLAAIGLLINIGMVATGGMQGYMDYMQQLQHMQ', 'protein production', 'failed'),
  ('KDNTKVIAHRGYWKTEGSAQNSIRSLERASEIGAYGSEFDVHLTADNVLVVYHDNDIQGKHIQSCTYDELKDLQLSNGEKLPTLEQYLKRAKKLKNIRLIFELKSHDTPERNRDAARLSVQMVKRMKLAKRTDYISFNMDACKEFIRLCPKSEVSYLNGELSPMELKELGFTGLDYHYKVLQSHPDWVKDCKVLGMTSNVWTVDDPKLMEEMIDMGVDFITTDLPEETQKILHSRAQ', 'protein production', 'not failed'),
  ('MRGPFMGFSIEFGEANLDKLGVRRTSERVSQPPLTLKNYALSRSIGRGNTSDVRLATGPDGREVAIKLPLPATLRQHDAAERFGNEVRLTLQFRHPHVVRGFAGTPFGPGAFLALFYYPDGPLSNRLRGQPLPNEEALRILADIAAALAYLHRLGAVHQDVKPQNVYVSGGRAALGDLGSAYFVAQGSKTSGSPYYMAPEVYHGESTSSASDVYSLGVMAWELLTGARPFSGNSYEELMVAHLSRFPAPLASLRPELPRALSRLLDRTFAKRPHERPTADALRRALLEALGETPQEEDLPAEEVPLASQQAGRHTAAPRVTGPQGPAETPAQPERVRPARRGWNPFRRKG', 'protein production', 'failed'),
  ('MTKITLSPQNFRIQKQETTLLKEKSTEKNSLAKSILAVKNHFIELRSKLSERFISHKNTESSATHFHRGSASEGRAVLTNKVVKDFMLQTLNDIDIRGSASKDPAYASQTREAILSAVYSKNKDQCCNLLISKGINIAPFLQEIGEAAKNVGLPGTTKNDVFTPSGAGANPFITPLISSANSKYPRMFINQHQQASFKIYAEKIIMTEVAPLFNECAMPTPQQFQLILENIANKYIQYTP', 'protein production', 'failed');

Data request: Query (sequence): MTSKHFISKKEAKRIWEAMARYGIDITGESLEVAAQKSASAYYIGGKPMVFQAGDLIPSVYLLNYRNPSRNIVTVDEGAEPHILNGSDLFAPGIVSMDDSIRKGDMIFVKSSKGYFIAVGMAEMDAGEVMATKRGKAARIIHFPGDELIRAFP ; field requested: protein production
Data returned: not failed

---

# test: label from the status in PepcDB records
quantity: protein production

Illustrative cases are given below, each with its answer.
INSERT INTO assay_data (sequencerecord, quantity, measuredvalue) VALUES
  ('MCLALPAQIDQVLEDNKAIVNLGGITKEISTVLLEQVSEGEYVIIHAGFALTKLDEREANKTLSLFAHMLKDG', 'protein production', 'not failed'),
  ('MMTKYGVVGTGYFGAELARFMSKVEGAKITAIYDPVNAAPIAKELNCVATATMEALCSHPDVDCVIIASPNYLHKAPVIAAAKAGKHVFCEKPIALNYQDCKDMVDACKEAGVTFMAGHVMNFFHGVRHAKALIKAGEIGEVTQVHTKRNGFEDVQDEISWKKIRAKSGGHLYHHIHELDCTLFIMDETPSLVSMAAGNVAHKGEKFGDEDDVVLITLEFESGRFATLQWGSSFHYPEHYVLIEGTTGAILIDMQNTAGYLIKAGKKTHFLVHESQAEDDDRRNGNISSEMDGAIAYGKPGKRTPMWLSSIMKLEMQYLHDVINGLEPGEEFAKLLTGEAATNAIATADAATLSSNEGRKVKLTEILGLEHHHHHH', 'protein production', 'not failed'),
  ('MVPLPRSMRVLHWLTVLCLVMAASLILLRAELEGRALRQWLLEGHRHFGLMVLLLFVLRVSLRLRLRALPPGPPSPLIMRLAAGGTHVAMYALMLALPLIGWSLSNAYGKTVYLFGITLPNLVAADEDLADTLGTWHLNAAWALLALVAVHIVAALVHHLVLRDGLLHRVLPGKHHR', 'protein production', 'failed'),
  ('MSPIVSVPDITAPVENVPAILPKVVPGELIVNKPTGGDSDELFQYLVDILASPVYDVAIESPLELAEKLSDRLGVNFYIKREDKQRVFSFKLRGAYNMMSNLSREELDKGVITASAGNHAQGVALAGQRLNCVAKIVMPTTTPQIKIDAVRALGGDVVLYGKTFDEAQTHALELSEKDGLKYIPPFDDPGVIKGQGTIGTEINRQLKDIHAVFIPVGGGGLIAGVATFFKQIAPNTKIIGVEPYGAASMTLSLHEGHRVKLSNVDTFADGVAVALVGEYTFAKCQELIDGMVLVANDGISAAIKDVYDEGRNILETSGAVAIAGAAAYCEFYKIKNENIVAIASGANMDFSKLHKVTELAGLGSGK', 'protein production', 'not failed');

Data request: Query (sequence): MAIARHRSFSRAAIELGVSASALSHALKGLETRLGVRLLNRTTKSVTPTAAGEELVQSVLQPFDTIEGALESLNRYRNTPTGRIRINAAVEAANLLLAPVMPAFMDRYPDIEIDIVASNRMVDVTDAGFDAGIRYGGTVPEDMVARRLSADIRWVIAASPDYLERYGTPEHPDDLLHHRCISNRLGDDRVYRWELARDGETYQMTVPGSVTVNHAETGLVAVLGGAGLMYFPEPLVAPYVKDGRLRLVLTEWSPLEEGFHIYYSSRRQLPTGLRLLIEFIQEARPLGL ; field requested: protein production
Data returned: failed

Data request: Query (sequence): MGHHHHHHSHPQSAAKPGLHFIDQHRAALIARVTNVEWLLDALYGKVLTDEQYQAVRAEPTNPSKMRKLFSFTPAWNWTCKDLLLQALRESQSYLVEDLERS ; field requested: protein production
Data returned: failed

Data request: Query (sequence): MYFDSHLHSEGLGFSELVKLKENGIKEVCSLAFFPVKPKYPQTMIDVFRKLTEFEPLRCEAAGVKMHPAVGIHPRCIPPDYEFVLGYLEEGEWVAFGEIGLELVTDEEIEVLKSQLELAKRMDVPCIIHTPRGNKLKATRKTLEILESLDFPADLAVIDHVNFETLDMVLETEYWIGLTVQPGKLSAEDAARIVAEHGPERFMLNSDAGYRDVEITTVAEAAVKIEEAVGREEMEKVARENARKFLRVLELEHHHHHH ; field requested: protein production
Data returned: failed

---

# test: label from the status in PepcDB records
quantity: protein production

INSERT INTO results (sequencerecord, measuredvalue) VALUES
  ('PRMIVFGAIDFASALARAGKFLGHHVTVCDARPVFATPARFPDADEVVVEWPHEYLARTAVDARTVLCVLTHDAKFDIPLLRLALRLPVAYVGAMGSRRTHLDRAARLREAGV', 'failed'),
  ('MTKSKIIEIGPLVPAFEEEKIVILFGPTATNELREISVIHEFEAAPQSALSKGNTLQIGDQVYIIEEVGTEANKNLEELGHISIYFRSGQNEVLPGAIVVSPEVFPTLAIGDTIQF', 'failed');
